B1: Osa-1-4 twister ribozyme (parent)
chain: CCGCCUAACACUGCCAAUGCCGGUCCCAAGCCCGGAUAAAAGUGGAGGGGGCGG

# Variants of: B1
# PROTOCOL NOTES: self-cleavage, relative activity (ratio to wild type); higher = more cleavage; co-transcriptional
Listed here: items and their measured self-cleavage.

These recorded examples may help you get a feel for the data.
C32U G54A
0.1
C14U C27G
0.06
C11A G22U
0.07
C11G G48A
0.03
G19C G54U
0.4
C26A G22U
0.05

GET /values?readout=self-cleavage&item= C21G U37G
0.14

GET /values?readout=self-cleavage&item= A29U A46G
0.04

GET /values?readout=self-cleavage&item= A17U U43C
0.8

GET /values?readout=self-cleavage&item= C11U U37G
0.94

GET /values?readout=self-cleavage&item= A10C G22C
0.02

GET /values?readout=self-cleavage&item= C33A G35C
0.04

GET /values?readout=self-cleavage&item= C14U C25A
0.06

GET /values?readout=self-cleavage&item= C25G C32A
0.03
